Source: the supplement of paper PMC10567573

experimentalProtocol: protein stability index of a GFP-peptide fusion (GPS, HEK-293T) (PSI 1-6); higher = more stable;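 further: 24-mer peptide tiles fused after GFP, lentivirally expressed, FACS-sorted into six equal bins by GFP/DsRed ratio, decoded by Illumina sequencing, PSI is the read-weighted mean bin number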
measurementParameters: treatment: MLN4924 1 uM, 8 h; c terminus: a fixed tail appended
Reported protein stability index values are given for each entry in this list.
Just the number, please, no unit after it.

Example cases with answers are listed next.
VDPIGHLYIFATCLGLSYDGLLGD [MAGEA3] | 3.21
QLVKKLNDSDHQSSTSPLMEGTPT [VPS39] | 4.9
CSDSDKKCHLWTAMDLGFFVVMGV [CLCN6] | 2.97
VSGLDSSYLREQMLNEPLVREIVK [GAN] | 2.96
LALMIQSSGNTVLLLILCMQHSFP [TMEM192] | 3.1
FSTYTSDKDENKLSEASGGRAENG [ZC3H15] | 5.23
ANAHTYHINSISVNSDYETYMSAD [PPP2R2B] | 3.8
RPVILDPADPTGNLGGGDPKGWRQ [OAS1] | 4.47

Look at this sequence and give its reported protein stability index. QKKQKLEQKAAGSASAKRVWNMTA [FATE1] 3.93

State the recorded protein stability index for this entry: KAFGVGVAYRSLGRFEQLGKTAAS [FSD1] 2.69

---

experimentalProtocol: protein stability index of a GFP-peptide fusion (GPS, HEK-293T) (PSI 1-6); higher = more stable
measurementParameters: treatment: MLN4924 1 uM, 8 h; c terminus: a fixed tail appended
Short version: protein stability index at least 4 is 1 (yes), less is 0 (no).

Answered examples (3):
TGIVNHTHSRMGSIMSTGIVQGSS [CARM1] | 0 (no)
DQFIPIWTVANMEEIKKLTTDPDL [LARP4] | 0 (no)
VVLLQGAELLLAARLLGALAARSG [TSPAN10] | 0 (no)

Decide: is the reported value of protein stability index for EGGGTSLHVACELARPECLFLLLG [ANKRD9] equal to or greater than 4? 0 (no)

Hello, I need to know if VDFQCVKSKSITNLAAAAADIPQD [BTBD10] has measured protein stability index not below 4. Thanks! 1 (yes)

In plain terms: is recorded protein stability index at least 4 for LARPECLFLLLGHGASPGLRDGGG [ANKRD9] ? 0 (no)

Tell me whether protein stability index is at least 4 here: IVGSQGAEGALEEVPLEVLRQRES [TBC1D10A] 1 (yes)

# check: protein stability index of RLYVDKSLNLSTEFISSTKRPYAK [SERPINB5] is greater than or equal to 4 0 (no)

Is protein stability index for PLGLEVDQFLEDVRLQERTSGGLL [NOP53] at or above 4? 1 (yes)

---

experimentalProtocol: protein stability index of a GFP-peptide fusion (GPS, HEK-293T) (PSI 1-6); higher = more stable
measurementParameters: treatment: DMSO; c terminus: a fixed tail appended
Entries and their protein stability index values follow.
Write the number on its own, no unit after it.

CCTHNNSATLSWKQPPLSTVPADG [TRIM9] | 3.09
DGNKDVYLSLLRMYLSPPSIHCLG [VPS39] | 2.94

Shifting focus to the sequence that follows.
# query: protein stability index of entry NTVVSTYVTTNVSLIPPRSEQLVN [TMEM106C] 3.04

---

Recorded protein stability index values for a group of sequences are listed next.
experimentalProtocol: protein stability index of a GFP-peptide fusion (GPS, HEK-293T) (PSI 1-6); higher = more stable
measurementParameters: treatment: DMSO; c terminus: a fixed tail appended
Give the figure only, with no unit attached.

Here are 10 sequences together with their reported answers.
FVQREEQLQFLIRYHRFISFALYL [CDS1] | 2.4
GENSDCHRDSSQAIPITELTKSQV [ZNF8] | 4.94
SEASIASNLQAMSTQMFQTKRCFR [SMG5] | 3.94
REPAGRWKEGRPRVEESGSKKEGK [PBXIP1] | 5.34
MEPGDIIGVAGNHWDGYSKGVNRK [FUT8] | 4.4
YSPEALASIQNHVRKREAPAPEAE [EFHC1] | 4.92
FQIYDKEASGYVDRDMFFKICESL [EFHC1] | 2.29
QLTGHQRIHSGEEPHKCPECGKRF [ZNF449] | 4.01
ELEIELQSQLSMKAGLENSLAETE [KRT15] | 4.77
KRRKDSEEEAASPEGKRVPKRLRC [FANCE] | 5.08

Fill blank: measured protein stability index of the sequence RLYVDKSLNLSTEFISSTKRPYAK [SERPINB5] is ____. 3.41

Give its protein stability index value. Item: VVLLQGAELLLAARLLGALAARSG [TSPAN10] 3.52

Give the measured protein stability index of LLAAREDLSKIIRTSSGTSREKTA [FAM98B] . 4.05

Endpoint output: protein stability index of RDDLEALGHMFMYFLRGSLPWQGL [CSNK1G3] . Value? 3.19

Quick one: protein stability index for TFFCPNDTYNDMATLFFNPQESAI [CLCN6] ? 2.23

---

experimentalProtocol: protein stability index of a GFP-peptide fusion (GPS, HEK-293T) (PSI 1-6); higher = more stable
measurementParameters: treatment: MLN4924 1 uM, 8 h; c terminus: a fixed tail appended
Response key: yes (1) means protein stability index >= 3; no (0) means protein stability index < 3.

# count of solved cases: 5
LKNSNYESIQQTARSIAEQAHELA [PPTC7] | yes (1)
DGNKDVYLSLLRMYLSPPSIHCLG [VPS39] | no (0)
MAVTGWLESLRTAQKTALLQDGRR [DPCD] | no (0)
GIREASSGGGGSSSNFHINVEESV [KRT15] | yes (1)
LASIFQLAMWTTALLHQAETLQPS [TMEM175] | yes (1)

Would you kindly look at the next entry?
Confirm if protein stability index reported for the sequence YSGTFALIGAAAFLGGVVRMTISL [CLCN6] is 3 or above. no (0)

---

experimentalProtocol: protein stability index of a GFP-peptide fusion (GPS, HEK-293T) (PSI 1-6); higher = more stable
measurementParameters: treatment: MLN4924 1 uM, 8 h; c terminus: a fixed tail appended
The following sequences are shown together with reported protein stability index values.

NFEEMRALLDSLPPPVESELALFQ [KLHL14] | 3.91

Suppose we examine the sequence FKDSAGKSPTGLKLKNDTENHQPV [ZNF75A] ; what protein stability index value has been reported? 5.03

Query (sequence): HFFALKVMSIPDVIRLKQEQHVHN [PRKX] ; field requested: protein stability index 2.17

Please look up its protein stability index: AARISNKGKFSTDTKGKPTSRTQV [ZC2HC1A] 4.19

Entry GRGLKSHAYIHSVQFSHHVFLNLH [USP39] has what protein stability index? 2.62

So what does the record say about protein stability index for SVGDPCGGAICGGPDHRLRLWRLF [SLC25A25] ? 2.62

Bench note: what protein stability index did SVVTEDGPEPKDKGSLPQPPITEV [ZNF232] show? 5.48

Recorded protein stability index for AAQPMQPLPESLASLHPSVSPGSP [PLAGL1] , please? 5.17

Would you mind telling me what protein stability index value was observed for MEDSQETSPSSNNSSEELSSALHL [NECAB1] ? 5.55

---

experimentalProtocol: protein stability index of a GFP-peptide fusion (GPS, HEK-293T) (PSI 1-6); higher = more stable
measurementParameters: treatment: DMSO; c terminus: a fixed tail appended
testReadout: protein stability index

HFKPHGFSSDKAKAGSSEWLAVDG [ATF4] | 3.89
SAPDTMKRYSMYLTPKGGVRTSYQ [TRIM29] | 2.94
GCGADSKKKRPPQPPEESQPPQSQ [PLK2] | 5.52
MPRQISRQSSVTESTLYPNPYHQP [TPRG1] | 3.73
ALVFGVNTFIALALQTLLTLIVVD [SLC19A2] | 3.33

From here, focus on the item given below.
So what's the measured protein stability index for this one? MPEFSSDSTMRILSNLVQHILKKY [RTP4] 2.2

---

experimentalProtocol: protein stability index of a GFP-peptide fusion (GPS, HEK-293T) (PSI 1-6); higher = more stable
measurementParameters: treatment: DMSO; c terminus: a fixed tail appended
Assign true whenever protein stability index does not fall below 3; assign false whenever it does.

GCGYGCQLHHVVYCFMIAYGTQRT [FUT8] | true
QVKASSPVPATPILQLEECCTHNN [TRIM9] | true
AQHSLMDGYCMFNHVAVAARYAQQ [HDAC6] | false
DCSFPGLPRHQDQPHHQPPNRAGA [TRAF3IP2] | true
FNEQTWEVSQQDPSHGEVGEHKDR [ZSCAN9] | true

In plain terms: is recorded protein stability index at least 3 for GQPSEPEHGPSPGQDTFCQGKADG [CHIT1] ? true

Would you say EYVLLKALALANSDSVHIEDAEAV [ESRRA] shows protein stability index at minimum 3? true

Decide: is the reported value of protein stability index for KSFILDFMLRYLYSQKESGHSNWL [ATL3] equal to or greater than 3? false

Reported protein stability index reaches at least 3 for DMWRSENQNRAYVTLAAHFLGLGA [ZBED1] ? false

Dear colleague, could you confirm whether NKTWREQYLRLPDAPEQRLRVMTT [ELOA2] has protein stability index at or above 3? true
